# target.or.system: T1, pGBTE2Fb-Rb: GAL4 DNA-binding domain fusion of AtE2Fb amino acids 1-385 (lacking the Rb-binding domain) (Arabidopsis)
# T1 construct: also called E2F3 N-terminal; E2Fb (=E2F3) N-terminal domain
# assay.info: yeast two-hybrid, growth on His- minimal medium; legend: +, positive interaction

>  <binder>
GAL4 transactivation domain fusion of AtDPa 121-292 (prey in pAD-GAL424) (other, not shown: large carriers) IIARDKKEIRWKGLPITCKKDVEEVKMDRNKVMSSVQKKAAFLKELREKVSSLESLMSRNQEMVVKTQGPAEGFTLPFILLETNPHAVVEIEISEDMQLVHLDFNSTPFSVHDDAYILKLMQEQKQEQNRVSSSSSTHHQSQHSSAHSSSSSCIASGTSGPVCWNSGSIDTR

>  <binding result>
binds

$$$$
>  <binder>
GAL4 transactivation domain fusion of AtDPb 182-385 (prey in pAD-GAL424) (other, not shown: large carriers) GLPRTSLSDIEELKNERLSLRNRIEKKTAYSQELEEQYVGLQNLIQRNEHLYSSGNAPSGGVALPFILVQTRPHATVEVEISEDMQLVHFDFNSTPFELHDDNFVLKTMKFCDQPPQQPNGRNNSQLVCHNFTPENPNKGPSTGPTPQLDMYETHLQSQQHQQHSQLQIIPMPETNNVTSSADTAPVKSPSLPGIMNSSMKPEN

>  <binding result>
binds

$$$$
>  <binder>
GAL4 transactivation domain fusion of AtDPa 42-292 (prey in pAD-GAL424) (other, not shown: large carriers) EKKGQSRTSGGGLRQFSVMVCQKLEAKKITTYKEVADEIISDFATIKQNAEKPLNENEYNEKNIRRRVYDALNVFMALDIIARDKKEIRWKGLPITCKKDVEEVKMDRNKVMSSVQKKAAFLKELREKVSSLESLMSRNQEMVVKTQGPAEGFTLPFILLETNPHAVVEIEISEDMQLVHLDFNSTPFSVHDDAYILKLMQEQKQEQNRVSSSSSTHHQSQHSSAHSSSSSCIASGTSGPVCWNSGSIDTR

>  <binding result>
binds

$$$$
